Tested on: MET
test summary: MET biochemical kinase assay
Parameters: species or system human; concentration or dose not given beside the values
Parameter class (string): assigned from measured Met Kinase % Inhibition. Ranges: low interval (below 30%), middle interval (30% to below 60%), high interval (60% or more)

Reference set, count: 2
Lab log: CNS(=O)(=O)c1ccc2c(c1)C(=Cc1cc(OC)ccc1O)C(=O)N2 — assign Met Kinase % Inhibition category
middle interval

# classify by Met Kinase % Inhibition band: CNS(=O)(=O)c1ccc2c(c1)C(=Cc1ccc(C#N)cc1)C(=O)N2
low interval

Continuing:
Category of CNS(=O)(=O)c1ccc2c(c1)C(=Cc1cccc(OC)c1O)C(=O)N2 , please.
high interval

In plain terms, what class is COc1ccc(C=C2C(=O)Nc3ccc(Br)c(C)c32)cc1OC ?
low interval

Category of O=C1Nc2ccc(CCCl)cc2C1=Cc1ccc(N2CCOCC2)cc1 , please.
middle interval

Please indicate the class for COc1ccc2ccccc2c1C=C1C(=O)Nc2c(Br)cc(Br)cc21 based on its Met Kinase % Inhibition.
low interval

GET /class?item= O=C1Nc2ccc(S(=O)(=O)Nc3ccc(C(F)(F)F)cc3)cc2C1=Cc1cc(Cl)ccc1O
high interval

Lab note: which band did COc1ccc(C=C2C(=O)Nc3ccc(I)cc32)cc1C(C)(C)C land in?
high interval

Band of Cc1c(Br)ccc2c1C(=Cc1ccc(O)c([N+](=O)[O-])c1)C(=O)N2 ?
high interval

* * *

assay system: EGFR (Homo sapiens)
Construct: Add 7 ug A431 cell lysate per well (EGFR source); endogenous in cells; host or cells: A431
Sequence (P00533 25-1210): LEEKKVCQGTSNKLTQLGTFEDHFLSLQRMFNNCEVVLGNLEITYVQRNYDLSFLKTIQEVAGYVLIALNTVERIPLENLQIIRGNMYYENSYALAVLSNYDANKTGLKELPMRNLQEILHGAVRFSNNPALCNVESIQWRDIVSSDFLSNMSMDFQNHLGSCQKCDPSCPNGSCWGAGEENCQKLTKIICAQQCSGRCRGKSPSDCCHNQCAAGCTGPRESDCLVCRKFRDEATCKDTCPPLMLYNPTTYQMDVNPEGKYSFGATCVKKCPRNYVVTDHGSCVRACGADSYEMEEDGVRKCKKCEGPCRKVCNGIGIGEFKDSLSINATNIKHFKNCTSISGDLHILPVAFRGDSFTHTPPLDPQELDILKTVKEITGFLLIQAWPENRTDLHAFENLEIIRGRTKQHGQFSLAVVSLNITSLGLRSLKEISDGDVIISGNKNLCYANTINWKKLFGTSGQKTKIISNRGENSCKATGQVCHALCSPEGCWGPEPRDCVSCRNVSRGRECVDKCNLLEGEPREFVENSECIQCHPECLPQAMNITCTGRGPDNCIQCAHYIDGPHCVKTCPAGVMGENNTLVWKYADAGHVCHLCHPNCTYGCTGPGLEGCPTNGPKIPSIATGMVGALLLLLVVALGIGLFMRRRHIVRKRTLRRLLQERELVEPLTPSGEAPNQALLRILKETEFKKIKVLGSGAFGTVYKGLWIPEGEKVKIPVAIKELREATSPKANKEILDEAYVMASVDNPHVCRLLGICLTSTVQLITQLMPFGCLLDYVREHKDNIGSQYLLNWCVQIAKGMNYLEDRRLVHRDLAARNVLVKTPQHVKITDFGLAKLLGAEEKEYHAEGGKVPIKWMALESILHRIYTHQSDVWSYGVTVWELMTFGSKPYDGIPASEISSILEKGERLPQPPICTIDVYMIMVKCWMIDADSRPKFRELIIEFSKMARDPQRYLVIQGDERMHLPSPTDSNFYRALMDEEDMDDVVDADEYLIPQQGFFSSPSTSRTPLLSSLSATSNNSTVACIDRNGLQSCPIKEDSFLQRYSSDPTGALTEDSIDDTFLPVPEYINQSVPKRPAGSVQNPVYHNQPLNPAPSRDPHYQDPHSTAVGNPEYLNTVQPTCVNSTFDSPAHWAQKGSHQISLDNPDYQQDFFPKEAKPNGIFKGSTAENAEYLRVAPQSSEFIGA
test summary: EGFR ELISA assay (in vitro kinase activity, EGFR captured from A431 cell lysate)
Type: biochemical
Design: concentration or dose not given beside the values
Source text: To provide a consistent method for measuring the in vitro kinase activity of the EGFR in an Enzyme-linked immunosorbent assay (Elisa). Scope. The following protocol describes the procedures used to analyze protein tyrosine kinase activity on the EGFR in an Elisa. The procedure also describes the protocol for the initial screening of drugs for inhibition or activation of protein tyrosine kinase activity. Reagents and Supplies. • 1. […]
Measured Biochem EGFR %Inhibition, listed per entry for reference.
Number only, in %; omit the unit.

Name the recorded Biochem EGFR %Inhibition for COc1cc(C=C2C(=O)Nc3ccc(Br)c(C)c32)cc(OC)c1 [10728/C04] .
16.1

New cases:
Reported Biochem EGFR %Inhibition for CNS(=O)(=O)c1ccc2c(c1)C(=Cc1cc(C(F)(F)F)ccc1F)C(=O)N2 [10728/D08] : what is it?
6.9

// returns reported Biochem EGFR %Inhibition for input O=C1Nc2ccc(CCCl)cc2C1=CC1C=CCCC1 (centres unmarked) [10729/G11]
23.4

What value of Biochem EGFR %Inhibition has been reported for the following molecule? Cc1c(O)ccc(C=C2C(=O)Nc3ccc(I)cc32)c1O [10718/B09]
-0.8

Any idea what its Biochem EGFR %Inhibition is? The molecule is CC(C)(C)c1cc(C=C2C(=O)Nc3ccc(I)cc32)ccc1OCc1ccccc1 [10732/B06]
12.8

* * *

assay system: PDGF-R (Homo sapiens)
Sequence (P09619 33-1106, species assumed): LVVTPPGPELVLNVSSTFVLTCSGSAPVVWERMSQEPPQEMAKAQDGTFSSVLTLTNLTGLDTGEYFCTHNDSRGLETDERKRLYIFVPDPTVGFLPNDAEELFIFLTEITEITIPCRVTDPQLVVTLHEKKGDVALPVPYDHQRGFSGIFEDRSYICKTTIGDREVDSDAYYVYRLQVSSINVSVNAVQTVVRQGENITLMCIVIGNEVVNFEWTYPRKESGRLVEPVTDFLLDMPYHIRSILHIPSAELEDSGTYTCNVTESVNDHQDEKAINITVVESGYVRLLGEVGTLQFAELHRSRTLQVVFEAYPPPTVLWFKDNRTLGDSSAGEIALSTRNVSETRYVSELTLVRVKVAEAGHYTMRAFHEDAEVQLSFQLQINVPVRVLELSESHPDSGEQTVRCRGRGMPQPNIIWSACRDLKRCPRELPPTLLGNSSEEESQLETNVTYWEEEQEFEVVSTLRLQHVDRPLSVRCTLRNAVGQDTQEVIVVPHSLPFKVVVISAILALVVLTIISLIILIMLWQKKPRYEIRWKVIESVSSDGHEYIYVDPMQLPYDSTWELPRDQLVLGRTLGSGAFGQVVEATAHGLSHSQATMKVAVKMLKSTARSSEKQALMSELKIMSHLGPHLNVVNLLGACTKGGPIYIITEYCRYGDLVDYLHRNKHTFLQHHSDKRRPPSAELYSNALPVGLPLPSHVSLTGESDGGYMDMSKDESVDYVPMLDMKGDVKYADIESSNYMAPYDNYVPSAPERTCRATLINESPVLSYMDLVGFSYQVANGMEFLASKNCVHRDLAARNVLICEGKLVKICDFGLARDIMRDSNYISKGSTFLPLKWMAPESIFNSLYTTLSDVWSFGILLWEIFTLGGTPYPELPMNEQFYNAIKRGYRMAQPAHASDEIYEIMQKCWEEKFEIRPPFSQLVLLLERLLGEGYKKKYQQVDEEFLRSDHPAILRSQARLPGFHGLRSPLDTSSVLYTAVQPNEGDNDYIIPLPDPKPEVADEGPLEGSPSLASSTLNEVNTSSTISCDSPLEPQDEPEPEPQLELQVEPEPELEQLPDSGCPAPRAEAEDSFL
test summary: PDGF-R ELISA
Format: cell-based
Text: A PDGF-R ELISA is described in International Patent Publication No. WO 96/40116, published December 19, 1996 by Tang et al.
reported endpoint: PDGF Kinase %Inhibition (%)
Write the value in % as a bare number.

Quick one: PDGF Kinase %Inhibition of CN1C(=O)C(=C2C(=O)Nc3ccc(I)cc32)c2ccccc21 [10731/B10] ?
4.6

Please report the recorded PDGF Kinase %Inhibition for Cc1c(Br)ccc2c1C(=Cc1ccc(O)c(O)c1O)C(=O)N2 [10723/C02] .
39.4

Consider the compound CCN(CC)c1ccc(C=C2C(=O)Nc3ccc(S(=O)(=O)Nc4ccc(C(F)(F)F)cc4)cc32)cc1 [10727/E02] and give its measured PDGF Kinase %Inhibition.
-6.7

Which PDGF Kinase %Inhibition is listed for CC(=O)n1cc(C=C2C(=O)Nc3ccc(I)cc32)c2ccccc21 [10730/B05] ?
-2.9

Could you share which PDGF Kinase %Inhibition value was measured for O=C1Nc2ccc(S(=O)(=O)N3CCOCC3)cc2C1=Cc1cc2ccccc2nc1Cl [10730/F08] ?
-0.3

Any idea what PDGF Kinase %Inhibition was measured for O=C1Nc2ccc(CCCl)cc2C1=CC1C=CCCC1 (centres unmarked) [10729/G11] ?
3.8

Next:
// returns reported PDGF Kinase %Inhibition for input Cc1cc2occ(C=C3C(=O)Nc4c(Br)cc(Br)cc43)c(=O)c2cc1C [10731/A03]
7.5

Item under review: O=C1Nc2ccc(S(=O)(=O)N3CCOCC3)cc2C1=Cc1coc2c(Br)cc(Br)cc2c1=O [10730/F09] . Reported PDGF Kinase %Inhibition?
13.3

Any idea what PDGF Kinase %Inhibition was measured for CC(=O)n1cc(C=C2C(=O)Nc3ccc(S(=O)(=O)N4CCOCC4)cc32)c2ccccc21 [10730/F05] ?
19.5

Looking for the measured PDGF Kinase %Inhibition of COc1c(Br)cc(C=C2C(=O)Nc3ccc(Br)c(C)c32)cc1C(C)(C)C [10732/C07] , can you help?
4.3

Consider the compound shown here: O=C1Nc2c(Br)cc(Br)cc2C1=Cc1cccc(Oc2ccccc2)c1 [10729/A06] What is its recorded PDGF Kinase %Inhibition?
-8.6

What value of PDGF Kinase %Inhibition has been recorded for this entry: O=C1Nc2ccc(S(=O)(=O)N3CCOCC3)cc2C1=Cc1c[nH]c(=O)[nH]c1=O [10731/F08]
4.1
